Biological target: Replicase polyprotein 1ab (Severe acute respiratory syndrome coronavirus 2)
Assay: Inhibition of SARS-CoV-2 nsp14 in HEK-293T cells cotransfected with pCoV-GLuc incubated for 24 hrs in the presence of coelenterazine-h by Gaussia luciferase reporter assay
Type: cell-based
measurement label: pEC50
By convention, pEC50 is the negative base-10 log of a molar concentration.

Here is how some compounds turned out for pEC50.
compound	test target	pEC50
C[C@H](NC(=O)OC(C)(C)C)C(=O)Nc1nc(N)ccc1/N=N/c1ccccc1	Replicase polyprotein 1ab (Severe acute respiratory syndrome coronavirus 2)	5.76
CSCC[C@H](NC(=O)OC(C)(C)C)C(=O)Nc1nc(N)ccc1/N=N/c1ccccc1	Replicase polyprotein 1ab (Severe acute respiratory syndrome coronavirus 2)	5.86
Nc1ccc(/N=N/c2ccccc2)c(NC(=O)[C@@H](N)Cc2c[nH]c3ccccc23)n1	Replicase polyprotein 1ab (Severe acute respiratory syndrome coronavirus 2)	5.82
CC(C)(C)OC(=O)N1CCC[C@H]1C(=O)Nc1nc(N)ccc1/N=N/c1ccccc1	Replicase polyprotein 1ab (Severe acute respiratory syndrome coronavirus 2)	5.87

Read the next record carefully.
[in] Entry Cl.Nc1ccc(/N=N/c2ccccc2)c(N)n1 [PHENAZOPYRIDINE HYDROCHLORIDE] , system Replicase polyprotein 1ab (Severe acute respiratory syndrome coronavirus 2): what pEC50 was measured?
[out] 5.10
